I'd appreciate it if you could supply TGI values for the items below.
- System: T-47D breast
- experimental.protocol: NCI tumour cell line growth inhibition, 48 h
Answers are plain numbers, in µM.

These recorded examples may help you get a feel for the data.
// fetch TGI given entry COc1cc(OC)cc(-c2n/c(=C\c3c(O)[nH]c4ccc(OC)cc34)cc3c2=Nc2ccccc2-3)c1 75.8

// fetch TGI given entry Cc1cccc2nc3ccccc3c(Nc3ccc(NS(C)(=O)=O)cc3)c12 24

// fetch TGI given entry COc1ccc(C2C(C#N)=C(S)N(C3OC(COC(C)=O)C(OC(C)=O)C(OC(C)=O)C3OC(C)=O)C(c3ccccc3)=C2C(C)=O)cc1 (stereo not given) 80.1

Turning now to a further compound:
// fetch TGI given entry COC(=O)c1ccc(C)cc1CC1Cc2ccc(C)cc2C1=O (stereo not given) 63

====

- Test system: OVCAR-3 ovarian
- experimental.protocol: NCI tumour cell line growth inhibition, 48 h; in the data active = GI50 below about 0.43 µM; inactive = the rest
Field 'call' accepts label 1 (active), label 0 (inactive)

Worked examples, 3 molecules total:
Which outcome did this test record for the molecule COc1cc(OC)cc(-c2n/c(=C\c3c(O)[nH]c4ccc(OC)cc34)cc3c2=Nc2ccccc2-3)c1 ? label 0

Which outcome did this test record for the molecule CC1(C)CNc2cc(NC(=O)c3cccnc3NCc3ccncc3)ccc21 ? label 0

Which outcome did this test record for the molecule C=C/C=C/[C@@H](O)CC(=C)C[C@H]1OC2[C@H](C)[C@@H](OC(=O)C[C@H]3C[C@H](OC(C)=O)C[C@@]4(C[C@@](C)(O)C[C@H](CC(=C)[C@@H](C)[C@H](OC(C)=O)[C@H](C)C(=O)C[C@@H]5C[C@H](OC)CC6(C[C@@H](O)C[C@H](/C=C\CCC[C@H]7O[C@](O)(C=C[C@H]7C)[C@H]2O)O6)O5)O4)O3)[C@@H]1O ? label 1

Next:
Which outcome did this test record for the molecule C[CH2][Ge]([CH2]C)([CH2]C)[O]C(=O)C(OC(C)=O)c1ccccc1 (centres undefined) ? label 0

Which outcome did this test record for the molecule CCN(Cc1ccccc1)C1CCN(Cc2cc(Br)ccc2O)CC1 ? label 0

Which outcome did this test record for the molecule Cc1cccc2nc3ccccc3c(Nc3ccc(NS(C)(=O)=O)cc3)c12 ? label 0

Which outcome did this test record for the molecule CNC(=O)c1c(NC(=O)c2ccc(C(C)(C)C)cc2)sc2c1CCC(=O)C2 ? label 0

Which outcome did this test record for the molecule Cc1ccccc1NC(=O)c1sc2nc(C)c(C(=O)/C=C/c3ccccc3)cc2c1N ? label 0

Which outcome did this test record for the molecule COc1ccc(/C(COc2ccc3oc(-c4ccccc4)cc(=O)c3c2)=N\O)cc1 ? label 1

Which outcome did this test record for the molecule C[C@]12CC[C@H]3[C@@H](CC=C4C[C@@H](N5CCCC5)CC[C@@]43C)[C@@H]1C/C(=C\c1cccc(OCCN3CCOCC3)c1)[C@@H]2O ? label 0

Which outcome did this test record for the molecule COc1ccc2c(c1)c(-c1nc(-c3c[nH]c4ccncc34)cs1)cn2C ? label 0

====

- Test system: IGROV1 ovarian
- experimental.protocol: NCI tumour cell line growth inhibition, 48 h
I'd appreciate it if you could supply TGI values for the items below.

Please look at O=C(/C=C(\S/C=C(/c1ccccc1)N1CCn2c(C(=O)c3ccccc3)c(C(=O)c3ccccc3)c(C(=O)c3ccccc3)c21)C(=O)c1ccccc1)c1ccccc1 and tell me its recorded TGI on IGROV1 ovarian. > 10 µM

Please look at O=C1CC[C@@]2(O)[C@H]3Cc4ccc(-c5ccccc5)c5c4[C@@]2(CCN3CC2CC2)[C@H]1O5 and tell me its recorded TGI on IGROV1 ovarian. > 100 µM

Please look at CCOC(=O)NC(OC)(C(F)(F)F)C(F)(F)F and tell me its recorded TGI on IGROV1 ovarian. > 100 µM

Please look at CC(=O)Nc1ccc2[nH]c(C(=O)N3CC(CCl)c4c3cc([N+](=O)[O-])c3ccccc43)cc2c1 (centres undefined) and tell me its recorded TGI on IGROV1 ovarian. > 53 µM

Please look at COc1cc(/C=C/C(=O)/C=C/c2ccc(-n3ccnc3C)cc2)ccc1O and tell me its recorded TGI on IGROV1 ovarian. 5.12 µM

Please look at Nc1ccc(C(=O)N/C(=C\c2cccc([N+](=O)[O-])c2)c2nc3[nH]c(=S)[nH]c(=O)c3[nH]2)cc1 and tell me its recorded TGI on IGROV1 ovarian. > 100 µM

Go through the list and state TGI for each entry.
1. COc1c(-c2nc3nc(N4CCN(C)CC4)ccc3[nH]2)cc(OC)c2c1nc(COC(C)=O)n2C
2. O=C(NC(=O)c1cc(-c2ccccc2)n[nH]1)c1ccccc1
3. O=C(Nc1cccc([N+](=O)[O-])c1)c1n[nH]n(-c2cccc([N+](=O)[O-])c2)c1=O

["> 100 µM", "> 100 µM", "> 100 µM"]

====

- Tested on: A498 renal
- experimental.protocol: NCI tumour cell line growth inhibition, 48 h
measured.endpoint: TGI (µM)
Numbers only, in µM.

These recorded examples may help you get a feel for the data.
Please look at Cn1cc(-c2ccc3cc(-c4ccc(CC(=O)Nc5cc(C(C)(C)C)on5)cc4)cnc3c2)cn1 and tell me its recorded TGI on A498 renal. 2.26

Please look at O=C1CC[C@@]2(O)[C@H]3Cc4ccc(-c5ccccc5)c5c4[C@@]2(CCN3CC2CC2)[C@H]1O5 and tell me its recorded TGI on A498 renal. 36.6

Please look at O=C(Nc1cccc(O)c1)c1ccc(NC2=C(Cl)C(=O)N(Cc3ccc(Cl)cc3Cl)C2=O)cc1 and tell me its recorded TGI on A498 renal. 29.3

Please look at C=C1C(=O)O[C@@H]2[C@H](O)[C@@H](C)[C@@H]3C=CC(=O)[C@@]3(C)[C@@H](OC(=O)/C(C)=C/C)[C@H]12 and tell me its recorded TGI on A498 renal. 6.88

Please look at NC(=O)c1cc([N+](=O)[O-])c(Cl)c([N+](=O)[O-])c1Cl and tell me its recorded TGI on A498 renal. 4.58

Please look at CC(=O)Nc1ccc2[nH]c(C(=O)N3CC(CCl)c4c3cc([N+](=O)[O-])c3ccccc43)cc2c1 (stereo not drawn) and tell me its recorded TGI on A498 renal. 4.06

Go through the list and state TGI for each entry.
1. O=C1C(c2ccc(Br)cc2)=[N+]([O-])c2ccccc21
2. CC1=C2[C@@H](CC1)[C@]1(C)O[C@@](C(C)C)(C[C@H]1OC(=O)CO)[C@H]2OC(=O)C1CC1c1ccccc1 (stereo partly drawn)
3. CCN(CC)CCCNc1cc(OC)cc2nc3cc(Cl)ccc3nc12

1. 56.1
2. 0.943
3. 2.7

====

- Tested on: TK-10 renal
- experimental.protocol: NCI tumour cell line growth inhibition, 48 h
measured.endpoint: TGI

These recorded examples may help you get a feel for the data.
// fetch TGI given entry Cc1n[nH]c(=O)n1/N=C\c1ccccc1 > 100 µM

// fetch TGI given entry CN(C)C(=N/O)/C(=N\O)N(C)C > 100 µM

// fetch TGI given entry Cc1ccc(S(=O)(=O)SC(C)(C)C)cc1 > 100 µM

// fetch TGI given entry COc1cc(OC)cc(-c2n/c(=C\c3c(O)[nH]c4ccc(OC)cc34)cc3c2=Nc2ccccc2-3)c1 9.86 µM

// fetch TGI given entry Cc1cccc(C)c1NC(=O)C1=NC(=S)NC(c2ccccc2)C1c1nc2ccccc2s1 (stereo not drawn) > 100 µM

// fetch TGI given entry CC(=O)Nc1ccc2[nH]c(C(=O)N3CC(CCl)c4c3cc([N+](=O)[O-])c3ccccc43)cc2c1 (stereo not drawn) > 100 µM

Go through the list and state TGI for each entry.
1. COc1ccc2c(c1OC)CO[C@@H]2[C@H]1c2c(cc3c(c2OC)OCO3)CCN1S(=O)(=O)c1cn(C)cn1
2. CC(C)(C)C1CCC2c3c([nH]c4ccccc34)C3C(=O)N(c4ccc(Cl)cc4)C(=O)C3C2C1 (stereo not drawn)

1. > 100 µM
2. > 100 µM

====

I'd appreciate it if you could supply log10(TGI) values for the items below.
- Test system: COLO 205 colon
- experimental.protocol: NCI tumour cell line growth inhibition, 48 h
Kindly note that the scale is log10 and the underlying TGI is in µM.

Go through the list and state log10(TGI) for each entry.
1. CCOC(=O)C(Cc1c[nH]c2cc([N+](=O)[O-])ccc12)NS(=O)(=O)c1ccc2ccccc2c1 (stereo not drawn)
2. C=C(NC(=O)C(=C)NC(=O)c1csc(C2=NC3c4csc(n4)C4NC(=O)c5csc(n5)C(C(C)(O)C(C)O)NC(=O)C5CSC(=N5)/C(=C/C)NC(=O)C(C(C)O)NC(=O)c5csc(n5)C3(CC2)NC(=O)C(C)NC(=O)C(=C)NC(=O)C(C)NC(=O)C(C(C)CC)NC2C=Cc3c(C(C)O)cc(nc3C2O)C(=O)OC4C)n1)C(N)=O (stereo not drawn)

1. 1.51
2. -0.08

Go through the list and state log10(TGI) for each entry.
1. COCc1c(-c2cc3cc(C)cc(OC)c3s2)c2c(N)ncnn2c1CN1CCNC(=O)C1
2. CC(=O)Oc1c(-c2ccccc2)sc2ccccc12
3. COC(=O)C1Cc2c(n(C)c3ccccc23)C(CCC(=O)O)N1Cc1ccccc1 (stereo not drawn)

1.39
1.48
1.86
